- Tested on: MKN1 cells
- assay: Inhibition of KRas-mediated phosphorylation of ERK (Cisbio HTRF pERK), MKN1 cells
- Type: cell-based
- experimental context: Homo sapiens, MKN-1, 3 hour compound incubation, Cisbio pERK HTRF
experimental readout: IC50 (nM)

* CCc1c(F)ccc2cc(O)cc(N3CCc4c(nc(OC[C@@]56CCCN5C[C@H](F)C6)nc4N4CCCn5nc(C(=O)N(C)CCOC)cc5C4)C3)c12 | 8.4
* CCNC(=O)c1nn2c(c1C)CN(c1nc(OC[C@@]34CCCN3C[C@H](F)C4)nc3c1CCN(c1cc(O)cc4ccc(F)c(CC)c14)C3)CCC2 | 12.3
* CCc1c(F)ccc2cc(O)cc(N3CCc4c(nc(OC[C@@]56CCCN5C[C@H](F)C6)nc4N4CCCn5nc(C(=O)N(C)C(C)C)cc5C4)C3)c12 | 7
* C=C1CN2CCCC2(COc2nc3c(c(N4CCC[C@@](C)(O)C4)n2)CCN(c2cc(O)cc4ccc(F)c(CC)c24)C3)C1 (stereo partly drawn) | 1

(I) CCc1c(F)ccc2cc(O)cc(N3CCc4c(nc(OC[C@@]56CCCN5C[C@H](F)C6)nc4N4CCCn5nc(C(=O)NC(C)C)c(Cl)c5C4)C3)c12
(II) CCc1c(F)ccc2cc(O)cc(N3CCc4c(nc(OC[C@@]56CCCN5C[C@H](F)C6)nc4N4CCCn5nc(C(=O)N6C[C@H](C)N[C@@H](C)C6)cc5C4)C3)c12
Ask: I would appreciate it if you could say which entry, I or II , has the lower IC50 value. Bench note: the answer is the label of the chosen record.
Result: I
(I: 11.3 nM, II: 35.1 nM)

----------
- system tested: KRas G12V (Homo sapiens, UniProt P01116, G12V)
- Sequence (P01116 1-169 isoform P01116-2 G12V): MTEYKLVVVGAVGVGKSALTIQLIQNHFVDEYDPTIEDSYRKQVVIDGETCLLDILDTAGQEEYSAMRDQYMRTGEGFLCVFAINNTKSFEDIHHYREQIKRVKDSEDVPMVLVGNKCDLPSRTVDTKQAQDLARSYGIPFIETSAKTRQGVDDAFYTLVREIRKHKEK
- assay: biochemical
- experimental context: Binding to KRas (IC50 nM) G12V, TR-FRET displacement, KRas G12V
experimental readout: IC50 (nM)

Solved cases (3 shown):
• CCc1cccc2cccc(N3CCc4c(nc(OCC5(CN(C)C)CC5)nc4N4CCCC(n5ccc(C)n5)C4)C3)c12 (stereo not drawn) = 4710
• CCc1c(F)ccc2cc(O)cc(N3CCc4c(nc(OC[C@@]56CCCN5C[C@H](F)C6)nc4N4CCCCC(COC(C)C(=O)N(C)C)C4)C3)c12 (stereo partly drawn) = 11
• Cc1cc2[nH]ncc2c(N2CCc3c(nc(OCC45CCCN4CCC5)nc3N3CCCC4(CC(=O)N4)C3)C2)c1C (stereo not drawn) = 18

(1) CCc1c(NC)nn2c1CN(c1nc(OC[C@@]34CCCN3C[C@H](F)C4)nc3c1CCN(c1cc(O)cc4ccc(F)c(CC)c14)C3)CCC2
(2) CCc1cccc2cccc(N3CCc4c(nc(OCC5(CN(C)C)CC5)nc4NC4CC(n5ccnn5)C4)C3)c12 (stereo not drawn)
(3) C=C1CN2CCCC2(COc2nc3c(c(N4CCCC5(CNS(=O)(=O)N5)C4)n2)CCN(c2cc(O)cc4ccc(F)c(CC)c24)C3)C1 (stereo not drawn)
(4) C[C@@]1(O)COCCN(c2nc(OC[C@@]34CCCN3C[C@H](F)C4)nc3c2CCN(c2ccc(F)c4sc(N)c(C#N)c24)C3)C1
Ask: Form: Sort by [IC50] Order [ ascending ] In plain terms: list the labels in the order you were asked to.
Result: 3, 1, 4, 2
(3: 3 nM, 1: 6 nM, 4: 60 nM, 2: 4790 nM)

(a) CCc1cccc2cccc(N3CCc4c(nc(OCC5(CN(C)C)CC5)nc4N(C)Cc4nnc5c(=O)n(C)ccn45)C3)c12
(b) CCc1cccc2cccc(N3CCc4c(nc(OCC5(CN(C)C)CC5)nc4N4CCOCC(O)C4)C3)c12 (stereo not drawn)
(c) CCc1c(F)ccc2cc(O)cc(N3CCc4c(nc(OC[C@@]56CCCN5C[C@H](F)C6)nc4N4CCCn5nc(NC(C)C)cc5C4)C3)c12
Ask: Sequence the entries by IC50, beginning with the highest number. Sort the labels as requested; that list is your answer.
Result: a, b, c
(a: 452 nM, b: 238 nM, c: 4 nM)
